- Tested on: HT-29
- ASSAY_METHOD_TEXT: Growth inhibition of human HT-29 cells after 72 hrs by MTS-PMS assay
- Type: functional
- SETTINGS: HT-29, 72 h
MEASURED_METRIC: GI50 (µM)
Numeric answer only, unit µM assumed.

Please review the following examples before continuing.
{"STRUCTURE_NOTATION": "C[C@H](COC(=O)C1CCCC1)[C@H]1CC[C@H]2[C@@H](O)CCC[C@]12C", "MEASURED_METRIC": "GI50", "READOUT_UNITS": "µM", "READOUT_NUMBER": 22.1}
{"STRUCTURE_NOTATION": "C[C@H](COC(=O)c1ccccc1O)[C@H]1CC[C@H]2[C@@H](O)CCC[C@]12C", "MEASURED_METRIC": "GI50", "READOUT_UNITS": "µM", "READOUT_NUMBER": 14.1}
{"STRUCTURE_NOTATION": "C[C@H](COC(=O)C1CC1)[C@H]1CC[C@H]2[C@@H](O)CCC[C@]12C", "MEASURED_METRIC": "GI50", "READOUT_UNITS": "µM", "READOUT_NUMBER": 82.6}
{"STRUCTURE_NOTATION": "C[C@H](COC(=O)c1cccnc1)[C@H]1CC[C@H]2[C@@H](O)CCC[C@]12C", "MEASURED_METRIC": "GI50", "READOUT_UNITS": "µM", "READOUT_NUMBER": 95.2}
{"STRUCTURE_NOTATION": "COc1cccc(C(=O)OC[C@@H](C)[C@H]2CC[C@H]3[C@@H](O)CCC[C@]23C)c1", "MEASURED_METRIC": "GI50", "READOUT_UNITS": "µM", "READOUT_NUMBER": 23.7}
{"STRUCTURE_NOTATION": "COc1ccc(C(=O)OC[C@@H](C)[C@H]2CC[C@H]3[C@@H](O)CCC[C@]23C)cc1", "MEASURED_METRIC": "GI50", "READOUT_UNITS": "µM", "READOUT_NUMBER": 39.8}

Now consider the entry below.
`C[C@H](COC(=O)C1CCCCC1)[C@H]1CC[C@H]2[C@@H](O)CCC[C@]12C` yielded GI50 of 15.2
